# assay.explanation: in vitro
# measurement.context: human, h69/lx4 cells
property.measured: MNTC at 168 h

Annotate the compound CC1(C)CC(N=c2cc3n(-c4cc(Cl)c(Cl)c(Cl)c4)c4ccccc4nc-3cc2Nc2cc(Cl)c(Cl)c(Cl)c2)CC(C)(C)N1 [Compound B4169] with its measured MNTC at 168 h.
> 12.5 µg/mL
